experimental-endpoint: melting point (°C)
Output spec: scalar in °C, unitless text.

Recorded results for 4 compounds are shown here.
• CCCCCCCCCCCCCCCCCCCCCC(=O)O [behenic acid] = 76
• CC(C)C1=CC2=CC[C@@H]3[C@](C)(CCC[C@@]3(C)C(=O)O)[C@H]2CC1 [abietic acid] = 161
• O=Cc1cc(Br)c(O)c(Br)c1 [3,5-dibromo-4-hydroxybenzaldehyde] = 182
• COC(=O)c1ccc([N+](=O)[O-])cc1 [methyl_4-nitrobenzoate] = 96

What melting point value was documented for this compound, O=C(/C=C/c1ccccc1)c1ccccc1O [2'-hydroxychalcone] ? 90

###

Listing of recorded melting point by entry.
Answer shape: numeric part, then the unit.

Recorded results for 5 compounds are shown here.
- CC(=O)OC1CC2C(CCC3(C)C(C(C)CCCC(C)C)CCC23)C2(C)CCC(=O)C=C12 (stereo not given) [3-oxocholest-4-en-6-yl acetate]: 102 °C
- CC(=O)Nc1ccc(Br)c(Cl)c1 [4'-bromo-3'-chloroacetanilide]: 124 °C
- CCCCCCCCCC(=O)O [decanoic_acid]: 32 °C
- c1ccc2cc3c(ccc4ccccc43)cc2c1 [benzanthracene]: 160 °C
- Oc1cccc2[nH]ccc12 [4-hydroxyindole]: 98 °C

What melting point value was documented for this compound, Cc1cc(=O)oc2c(O)c(O)ccc12 [7,8-dihydroxy-4-methylcomarin] ? 243 °C

What melting point value was documented for this compound, Cc1nc(C)c(C)nc1C [Tetramethylpyrazine] ? 85 °C

What melting point value was documented for this compound, Nc1ccc2c(c1)C(=O)c1ccccc1C2=O [2-Amino-9,10-anthraquinone] ? 295 °C

What melting point value was documented for this compound, Nc1ccccc1Br [o-bromoaniline] ? 30 °C

What melting point value was documented for this compound, COc1ccc(NC(=O)N(C)C)cc1Cl [metoxuron] ? 127 °C

###

Listing of recorded melting point by entry.
Output spec: scalar in °C, unitless text.

Recorded results for 3 compounds are shown here.
• O=C4\C=C3/[C@]([C@H]2CC[C@]1([C@@H](CC[C@@]1(O)C)[C@@H]2CC3)C)(C)CC4 [17-methyltestosterone] = 164
• Oc1ccc(Cl)cc1Cc1cc(Cl)ccc1O = 174
• Oc1cccc2[nH]nnc12 [4-hydroxy-1h-benzotriazole] = 222

What melting point value was documented for this compound, O=C(CCc1ccccc1)/C(=N/O)c1ccccc1 ? 130

###

experimental-endpoint: melting point (°C)
Output spec: scalar in °C, unitless text.

- CCCN(CCC)CCC [tri-n-propylamine]: -93
- CCCCS [Butane-1-thiol]: -116

What melting point value was documented for this molecule, Clc1ccc(Cl)cc1 [1,4-dichlorobenzene] ? 54

###

Use Y when the recorded melting point is no lower than 90 °C; use N when it is lower.

Here's what some known entries look like.
- O=C(NC(Cc1ccccc1)C(=O)O)OCc1ccccc1[N+](=O)[O-] (stereo not given) [N-{[(2-nitrobenzyl)oxy]carbonyl}phenylalanine]: Y
- CCC1(CC)C(=O)NCC(C)C1=O (stereo not given): N
- Oc1ccc(Oc2ccccc2)cc1: N

Here is the next item to consider.
Quick check, melting point >= 90 °C? ClC(Br)Br N

###

Use yes when the recorded melting point is no lower than 10 °C; use no when it is lower.

Here's what some known entries look like.
* CC(=O)N1CCN(c2ccc(OCC3COC(Cn4ccnc4)(c4ccc(Cl)cc4Cl)O3)cc2)CC1 (stereo unspecified) | yes
* CC1=C(C(=O)O)N2C(=O)[C@@H](NC(=O)[C@H](N)C3=CCC=CC3)[C@H]2SC1 [Cefradine] | yes
* CC(C)CCCC(C)C1CCC2C3CC(O)C4=CC(=O)CCC4(C)C3CCC12C (stereo unspecified) [6-hydroxycholest-4-en-3-one] | yes
* CCCCN(CCCC)CCCC [N,N-Dibutylbutan-1-amine] | no
* C=C[C@H]1CN2CC[C@H]1C[C@@H]2[C@@H](O)c1ccnc2ccc(OC)cc12 [Quinidine] | yes

Quick check, melting point >= 10 °C? NC1=NCCS1 [2-amino-2-thiazoline] yes

Quick check, melting point >= 10 °C? OCC1COc2ccccc2O1 (stereo unspecified) [2-hydroxymethyl-1,4-benzodioxane] yes

Quick check, melting point >= 10 °C? OC1CCCC1 [Cyclopentanol] no

Quick check, melting point >= 10 °C? CCCCCC(=O)O [hexanoic acid] no

Quick check, melting point >= 10 °C? COC(=O)C1(C)C(C(C)=O)=Nc2ccccc21 (stereo unspecified) [methyl 2-acetyl-3-methyl-3H-indole-3-carboxylate] yes

Quick check, melting point >= 10 °C? O=C1CC(C(=O)O)c2ccccc21 (stereo unspecified) [3-oxoindane-1-carboxylic acid] yes

Quick check, melting point >= 10 °C? COC(F)(F)C(Cl)Cl [Methoxyflurane] no

Quick check, melting point >= 10 °C? O=C(O)[C@@H]1CCCN1C(=O)OCc1ccccc1 [N-Cbz-L-proline] yes

Quick check, melting point >= 10 °C? CCOC(=O)c1ccccc1 [ethyl benzoate] no

Quick check, melting point >= 10 °C? Sc1ccc(Cl)cc1 [4-chlorothiophenol] yes

Quick check, melting point >= 10 °C? Cc1ccc(S(=O)(=O)OCCCOS(=O)(=O)c2ccc(C)cc2)cc1 [1,3-propanediol di-p-toluenesulfonate] yes

Quick check, melting point >= 10 °C? C=CC(C)(C)C [3,3-dimethyl-1-butene] no

Quick check, melting point >= 10 °C? O=[N+]([O-])c1cc(Br)ccc1Br [1,4-dibromo-2-nitrobenzene] yes

Quick check, melting point >= 10 °C? Oc1cc(Cl)cc(Cl)c1 [3,5-dichlorophenol] yes

Quick check, melting point >= 10 °C? CC(C)CCCC(C)C1CCC2C3CC(O)C4(O)CC(O)CCC4(C)C3CCC12C (stereo unspecified) yes
